Catalogue of compounds with associated pKi
target: Itk (Homo sapiens); test: ITK inhibition assay (UV), standard coupled enzyme assay; format: biochemical; settings: 100 μM ATP, 100 nM Itk, 25° C.
Sequence (Q08881 whole entry, species assumed): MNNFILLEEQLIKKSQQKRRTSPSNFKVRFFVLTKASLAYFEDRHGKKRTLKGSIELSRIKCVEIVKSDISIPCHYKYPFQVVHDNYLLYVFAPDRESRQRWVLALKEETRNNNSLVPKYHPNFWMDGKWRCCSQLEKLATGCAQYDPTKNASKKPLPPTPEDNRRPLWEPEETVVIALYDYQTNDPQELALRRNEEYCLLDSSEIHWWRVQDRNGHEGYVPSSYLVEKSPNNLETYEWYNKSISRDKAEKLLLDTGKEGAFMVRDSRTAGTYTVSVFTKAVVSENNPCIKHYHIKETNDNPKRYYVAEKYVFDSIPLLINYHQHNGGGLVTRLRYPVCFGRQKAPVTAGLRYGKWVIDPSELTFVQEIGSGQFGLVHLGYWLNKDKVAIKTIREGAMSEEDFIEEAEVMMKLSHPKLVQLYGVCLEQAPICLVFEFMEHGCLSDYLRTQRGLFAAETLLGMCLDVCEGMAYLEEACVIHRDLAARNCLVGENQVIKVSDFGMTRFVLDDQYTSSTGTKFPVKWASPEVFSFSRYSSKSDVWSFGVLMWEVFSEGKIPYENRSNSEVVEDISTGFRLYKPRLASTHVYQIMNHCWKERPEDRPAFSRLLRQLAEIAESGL
pKi: −log10 of the molar value.
parameter measured: pKi

[[record]]
chemical_structure = "CNc1cccc(-c2c[nH]c(=O)c(NC(=O)c3ccc(C(C)(C)C)cc3)c2)n1"
parameter_measured = "pKi"
assay_result = "6.00 to 7.00"

[[record]]
chemical_structure = "CSc1nccc(-c2c[nH]c(=O)c(NC(=O)c3ccc(C(C)(C)C)cc3)c2)n1"
parameter_measured = "pKi"
assay_result = "6.00 to 7.00"

[[record]]
chemical_structure = "CC(C)(C)c1ccc(C(=O)Nc2cc(-c3ccncc3)c[nH]c2=O)cc1"
parameter_measured = "pKi"
assay_result = "6.00 to 7.00"

[[record]]
chemical_structure = "O=C(Nc1cc(-c2ccncc2)c[nH]c1=O)c1ccc(CCl)cc1"
parameter_measured = "pKi"
assay_result = "6.00 to 7.00"

[[record]]
chemical_structure = "O=C(Nc1cc(-c2ccncc2)c[nH]c1=O)c1ccc(N2CCCC2)cc1"
parameter_measured = "pKi"
assay_result = "6.00 to 7.00"

[[record]]
chemical_structure = "O=C(Nc1cc(-c2ccncc2)c[nH]c1=O)c1ccc(N2CCCNCC2)cc1"
parameter_measured = "pKi"
assay_result = "> 7.00"

[[record]]
chemical_structure = "CNc1cc(-c2c[nH]c(=O)c(NC(=O)c3ccc(C(C)(C)C)cc3)c2)nc(SC)n1"
parameter_measured = "pKi"
assay_result = "6.00 to 7.00"

[[record]]
chemical_structure = "CN1CCN(c2ccc(C(=O)Nc3cc(-c4ccncc4)c[nH]c3=O)cc2)CC1"
parameter_measured = "pKi"
assay_result = "> 7.00"

[[record]]
chemical_structure = "O=C(Nc1cc(-c2ccncc2)c[nH]c1=O)c1ccc(N2CCCCCC2)cc1"
parameter_measured = "pKi"
assay_result = "> 7.00"

[[record]]
chemical_structure = "NCCCNc1ccc(C(=O)Nc2cc(-c3ccncc3)c[nH]c2=O)cc1"
parameter_measured = "pKi"
assay_result = "> 7.00"

[[record]]
chemical_structure = "O=C(Nc1cc(-c2ccncc2)c[nH]c1=O)c1ccc(CN2CCOCC2)cc1"
parameter_measured = "pKi"
assay_result = "6.00 to 7.00"

[[record]]
chemical_structure = "CN(C)CCCNc1ccc(C(=O)Nc2cc(-c3ccncc3)c[nH]c2=O)cc1"
parameter_measured = "pKi"
assay_result = "> 7.00"

[[record]]
chemical_structure = "O=C(Nc1cc(-c2ccncc2)c[nH]c1=O)c1ccc(CN2CCNCC2)cc1"
parameter_measured = "pKi"
assay_result = "6.00 to 7.00"

[[record]]
chemical_structure = "CNCCN(C)Cc1ccc(C(=O)Nc2cc(-c3ccncc3)c[nH]c2=O)cc1"
parameter_measured = "pKi"
assay_result = "6.00 to 7.00"

